Please provide measured IC50 for the entries that follow.
Target: P-selectin (Homo sapiens, UniProt P16109)
Sequence (P16109 42-830): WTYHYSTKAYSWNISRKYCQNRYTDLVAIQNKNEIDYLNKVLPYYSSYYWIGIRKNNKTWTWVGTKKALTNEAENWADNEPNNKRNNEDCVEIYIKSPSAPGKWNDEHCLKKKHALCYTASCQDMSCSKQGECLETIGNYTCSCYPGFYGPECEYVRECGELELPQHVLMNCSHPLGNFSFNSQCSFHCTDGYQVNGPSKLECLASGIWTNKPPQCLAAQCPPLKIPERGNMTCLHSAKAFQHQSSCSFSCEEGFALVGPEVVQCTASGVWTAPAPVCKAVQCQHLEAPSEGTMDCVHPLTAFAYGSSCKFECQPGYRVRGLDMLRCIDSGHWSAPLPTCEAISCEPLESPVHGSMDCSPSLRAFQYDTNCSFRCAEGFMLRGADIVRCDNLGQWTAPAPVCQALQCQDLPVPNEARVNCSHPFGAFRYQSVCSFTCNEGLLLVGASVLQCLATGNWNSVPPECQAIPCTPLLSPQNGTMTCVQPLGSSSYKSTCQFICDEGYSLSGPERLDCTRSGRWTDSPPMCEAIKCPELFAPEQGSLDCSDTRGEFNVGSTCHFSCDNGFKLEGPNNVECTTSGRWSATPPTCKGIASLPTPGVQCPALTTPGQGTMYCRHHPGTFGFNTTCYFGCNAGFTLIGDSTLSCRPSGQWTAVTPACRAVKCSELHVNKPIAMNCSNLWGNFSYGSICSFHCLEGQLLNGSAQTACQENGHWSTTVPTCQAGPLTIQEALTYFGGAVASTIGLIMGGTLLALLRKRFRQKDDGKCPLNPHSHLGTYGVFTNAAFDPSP
Assay: Inhibition of binding of human neutrophils to P-selectin (neutrophil adhesion to purified immobilized P-selectin, myeloperoxidase readout)
Settings: P-selectin purified from human platelets, plated at 5 micrograms/mL, peptides tested 1.0 mM to 0.001 mM
Where a SMILES comes first, the peptide text is derived from it. Bridges are numbered along the chain shown (N, C = ends).
One number for each entry, in µM.

>  <compound>
CC(C)C[C@H](NC(=O)[C@H](C)NC(=O)[C@H](Cc1c[nH]cn1)NC(=O)[C@H](CCCCN)NC(=O)[C@H](CCCCN)NC(=O)[C@H](CCCCN)NC(=O)[C@H](CC(C)C)NC(=O)[C@@H](N)CS)C(=O)N[C@@H](CS)C(=O)N[C@@H](Cc1ccc(O)cc1)C(N)=O [SEQ ID NO: 1] (H-CLKKKHALCY-NH2)

>  <reported measurement>
269

$$$$
>  <compound>
CC(C)C[C@@H]1NC(=O)[C@H](C)NC(=O)[C@H](Cc2c[nH]cn2)NC(=O)[C@H](CCCCN)NC(=O)[C@H](CCCCN)NC(=O)[C@H](CCCCN)NC(=O)[C@H](CC(C)C)NC(=O)[C@@H](N)CSSC[C@@H](C(=O)N[C@@H](Cc2ccc(O)cc2)C(N)=O)NC1=O [SEQ ID NO: 4] (H-CLKKKHALCY-NH2; disulfide 1-9)

>  <reported measurement>
626

$$$$

Shifting focus to the compound that follows.
// CC(C)C[C@@H]1NC(=O)[C@H](C)NC(=O)[C@H](CC(C)C)NC(=O)[C@H](CCCCN)NC(=O)[C@H](CCCCN)NC(=O)[C@H](CCCCN)NC(=O)[C@H](CO)NC(=O)[C@@H](N)CSSC[C@@H](C(=O)N[C@@H](Cc2ccc(O)cc2)C(N)=O)NC1=O [SEQ ID NO: 5] (H-CSKKKLALCY-NH2; disulfide 1-9) : IC50 value = 78

// data source = patent US5710123A
